Target: T1, Lsb4, P32793
T1 sequence (P32793 402-468, looked up): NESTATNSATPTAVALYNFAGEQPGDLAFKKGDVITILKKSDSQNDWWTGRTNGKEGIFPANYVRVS
Test: SPOT array
Conditions: median of control spots 397
Test Readout: SPOT intensity

DLPLPDLPPEPPTEL	0

1 = DHPKGPPPPPPPDEK
2 = RVRKTHVPASKRPSG
3 = QQNRPLPQLPNRNNR
Q. # desc sort on SPOT intensity across 3 binders Submit the labels in the order that the ranking request calls for.
A. 3, 2, 1
(3: 484, 2: 1, 1: 0)
